Tested on: receptor labeled by the radioiodinated analogue of 1 (4, [125I]-YLFQPQRF-NH2); neuropeptide FF receptor
Assay: Competitive radioligand binding against 4 ([125I]Y8F-amide)
Conditions: mixture-based positional scanning; difference from averaged radioligand displacement of whole library (0); about 80 a.u. = 10-fold change in Ki
Description: Additionally, three-dimensional (3-D) molecular models of the known smaller-size neuropeptide FF antagonists 3 and 3a were constructed and their low-energy conformations were obtained in the AMBER force-field [Weiner, et al., J. Comput. Chem. 1986, 7, […].] by molecular dynamics calculations involving simulated annealing. A semi-empirical quantum chemical method with the PM3 parameterization [Stewart, J. Comput. Chem. 1989, 10, 209-220.] was used for the final geometry optimization. […]
Peptide text beside a SMILES is read from it. * marks the point of attachment. Dansyl = CN(C)c1cccc2c(S(=O)(=O)*)cccc12
// label = true if Relative Binding Index (RBI) is not less than 20 a.u., otherwise false

CN(C)c1cccc2c(S(=O)(=O)N[C@@H](Cc3ccccc3)C(=O)N[C@@H](CCC(=O)O)C(=O)N[C@@H](CCCNC(=N)N)C(N)=O)cccc12 [Dansyl-FER-amide] (Dansyl-Phe-Glu-Arg-NH2)	false
CN(C)c1cccc2c(S(=O)(=O)N[C@@H](CCCCN)C(=O)N[C@@H](CC(N)=O)C(=O)N[C@@H](CCCNC(=N)N)C(N)=O)cccc12 [Dansyl-KNR-amide] (Dansyl-Lys-Asn-Arg-NH2)	true
C[C@@H](O)[C@H](NC(=O)[C@H](CC(N)=O)NS(=O)(=O)c1cccc2c(N(C)C)cccc12)C(=O)N[C@@H](CCCNC(=N)N)C(N)=O [Dansyl-NTR-amide] (Dansyl-Asn-Thr-Arg-NH2)	false
CN(C)c1cccc2c(S(=O)(=O)N[C@@H](CCC(=O)O)C(=O)N[C@@H](Cc3c[nH]c4ccccc34)C(=O)N[C@@H](CCCNC(=N)N)C(N)=O)cccc12 [Dansyl-EWR-amide] (Dansyl-Glu-Trp-Arg-NH2)	true
CC(C)C[C@H](NC(=O)[C@H](CO)NS(=O)(=O)c1cccc2c(N(C)C)cccc12)C(=O)N[C@@H](CCCNC(=N)N)C(N)=O [Dansyl-SLR-amide] (Dansyl-Ser-Leu-Arg-NH2)	false

Origin of values: patent US6960574B2
